- Test system: INS-1E rat beta cells, no cytokines, CellTiter-Glo ATP, 48 h
- assay_protocol: cytokine-free beta-cell viability effect – INS-1E rat cells, ATP luminescence, cherry pick, counter-screen for beta-cell apoptosis protection project, dose response (AID 463229)
property_measured: AC50

Cc1cc(N/N=C\c2ccc(Br)cc2)nc(-n2nc(C)cc2C)n1
21.5 µM
CC1=NN(c2nc(-c3ccc(C)cc3)cs2)C(=O)C1N=Nc1ccc(C(N)=O)cc1 (centres undefined)
3.53 µM
CCCCCCCCCCCCCCCC[N+](C)(C)CCN(Cc1ccc(OC)cc1)c1ncccn1
4.23 µM
Oc1cc(-c2ccc(N3CCCCC3)nc2)cc2cccnc12
7.31 µM
COc1ccc2cc1Oc1ccc(cc1)C[C@H]1c3c(cc(OC)c4c3Oc3c(ccc5c3[C@H](C2)N(C)CC5)O4)CCN1C
7.68 µM
O=C(CN(Cc1ccco1)Cc1ccco1)Nc1cc(S(=O)(=O)N2CCCCC2)ccc1Cl
7.47 µM
CNC[C@H](Cc1ccccc1)NC[C@@H](Cc1cccc2ccccc12)NCCc1ccc(C)cc1
7.64 µM
COc1ccccc1OCCCCOc1ccccc1C(C)=O
23 µM
Cc1[nH]n(-c2ccc(Br)cc2)c(=O)c1/C=N/NC(=O)c1ccccc1
2.13 µM

* * *

AC50 values by entry
- System: INS-1E rat beta cells, no cytokines, CellTiter-Glo ATP, 48 h
- assay_protocol: cytokine-free beta-cell viability effect – INS-1E rat cells, ATP luminescence, cherry pick, counter-screen for beta-cell apoptosis protection project, dose response (AID 463229)
property_measured: AC50

O=C(N/N=C/c1cc(Cl)ccc1O)c1cccnc1
8.72 µM
COc1ccc(NC(=O)/C(Cl)=C(/Cl)S(=O)Cc2ccc(C)cc2)cn1 (stereo unspecified)
1.3 µM
CCOc1cccc(/C=N/Nc2ccc(S(=O)(=O)N(CC)CC)cn2)c1O
3.67 µM
Oc1c(Br)cc(Br)cc1/C=N/Nc1ccc(Cl)nn1
1.21 µM
COc1ccc(NCc2nnc(SCC(=O)Nc3nc(-c4ccccc4)cs3)n2-c2ccccc2)cc1
7 µM
C=CCn1c(=NC(=O)c2cc(-c3cccs3)nc3ccccc23)sc2cc(S(N)(=O)=O)ccc21
17.9 µM

* * *

Quick reference for AC50 among some compounds
- Test system: INS-1E rat beta cells, no cytokines, CellTiter-Glo ATP, 48 h
- assay_protocol: cytokine-free beta-cell viability effect – INS-1E rat cells, ATP luminescence, cherry pick, counter-screen for beta-cell apoptosis protection project, dose response (AID 463229)
property_measured: AC50

CCN(CC)CCN1c2ccccc2Sc2ccc3ccccc3c21
18.1 µM
Cc1ccccc1OCCn1c(C)nc2ccccc21
15.2 µM
CCCC(=O)NC(c1ccccc1OC)c1ccc2cccnc2c1O (centres undefined)
3.28 µM
COc1ccc2nc(N=Nc3ccc(O)c4ccccc34)sc2c1
7.16 µM
CN1CCN(C(c2ccc(C(F)(F)F)cc2)c2cc(Cl)c3cccnc3c2O)CC1 (centres undefined)
6.69 µM
COC(=O)[C@@H](Cc1ccccc1)N(Cc1ccccc1)S(=O)(=O)N(Cc1ccccc1)[C@H](Cc1ccccc1)C(=O)OC
4.27 µM
Oc1c(CN2CCN(c3ccccc3)CC2)cc(Br)c2cccnc12
5.87 µM
O=C(N/N=C/c1c(O)ccc2ccccc12)c1ccc(Br)o1
4.83 µM
CC(C)(C)c1ccc(C(=O)Nc2ccc(C(=O)NCc3cccnc3)cc2)cc1
< 0.195 µM
CCOc1ccc2nc(NC(=O)c3cccc(-c4cc5ccccc5oc4=O)c3)sc2c1
3.31 µM
C=CCn1c(SCC(=O)c2[nH]c(C)c(C(=O)OCC)c2C)nc2scc(-c3ccc(OC)c(OC)c3)c2c1=O
3.53 µM
C/C(=N\NC(=O)Cc1ccc(Cl)cc1)c1ccccn1
4.89 µM
CCOC(=O)c1c(C)[nH]c(C(=O)N/N=C\c2ccccc2O)c1C
6.52 µM
N#Cc1ccc(C(=O)Nc2nc(-c3cccs3)c(C(=O)C(F)(F)F)s2)cc1
4.37 µM
CN1/C(=C\C(=O)c2ccco2)C(C)(C)c2ccccc21
7.58 µM
O=C(Nc1ccc(Cl)cc1)Nc1ccc(Cl)c(Cl)c1
6.98 µM
CC[n+]1ccc(/C=C/c2c[nH]c3ccccc23)cc1
5.85 µM
Cc1[nH]nc2nc(SCC(=O)NCCC3=CCCCC3)n(-c3ccc(Br)cc3)c(=N)c12
6.36 µM
C=C(C)C(=O)OCC(O)COc1ccc(C(C)(C)c2ccc(OCC(O)COC(=O)C(=C)C)cc2)cc1 (centres undefined)
19.2 µM
